Tested on: Escherichia coli
assay-procedure: Gyrase-drug induced cleavage against Escherichia coli
Format: functional
attribute-measured: MEC (µg/mL)
Return type: number; implicit unit µg/mL.

Some compounds with recorded MEC:
NCC1CN(c2c(F)cc3c(=O)c(C(=O)O)cn(C4CC4)c3c2F)CC1c1ccccc1 (stereo not given) ... 2.62
CC1(N)CCN(c2c(F)cc3c(=O)c(C(=O)O)cn(C4CC4)c3c2F)C1 (stereo not given) ... 0.8
CC1(CN)CCN(c2c(F)cc3c(=O)c(C(=O)O)cn(C4CC4)c3c2F)C1 (stereo not given) ... 2.62
CN(C)CC1(c2ccccc2)CCN(c2c(F)cc3c(=O)c(C(=O)O)cn(C4CC4)c3c2F)C1 (stereo not given) ... 2.62

Turning now to a further record.
Reported MEC ( NCC1CCN(c2c(F)cc3c(=O)c(C(=O)O)cn(C4CC4)c3c2F)C1 (stereo not given) ) = 0.25

----------
Tested on: Escherichia coli
assay-procedure: Gyrase-drug induced cleavage against Escherichia coli
Type: functional
MEC listing for selected compounds.

Known results for compounds:
CCNCC1(c2ccccc2)CCN(c2c(F)cc3c(=O)c(C(=O)O)cn(C4CC4)c3c2F)C1 (stereo not given) ... 2.62 µg/mL
NC1CN(c2c(F)cc3c(=O)c(C(=O)O)cn(C4CC4)c3c2F)CC1c1ccccc1 (stereo not given) ... 2.75 µg/mL
NCC1(c2ccccc2)CCN(c2c(F)cc3c(=O)c(C(=O)O)cn(C4CC4)c3c2F)C1 (stereo not given) ... 2.62 µg/mL
NC1CCN(c2c(F)cc3c(=O)c(C(=O)O)cn(C4CC4)c3c2F)C1 (stereo not given) ... 0.1 µg/mL

Shifting focus to the compound that follows.
For record NC1(c2ccccc2)CCN(c2c(F)cc3c(=O)c(C(=O)O)cn(C4CC4)c3c2F)C1 (stereo not given) the listed MEC is 0.55 µg/mL

----------
System: Enterococcus faecalis
assay-procedure: Antibacterial activity was determined against Gram-positive Streptococcus faecalis MGH-2 bacteria
Type: functional
Labelling: MIC reported below 0.05 µg/mL becomes TRUE; at or above becomes FALSE.

NCC1CN(c2c(F)cc3c(=O)c(C(=O)O)cn(C4CC4)c3c2F)CC1c1ccccc1 (stereo not given) ... TRUE
CCNCC1(c2ccccc2)CCN(c2c(F)cc3c(=O)c(C(=O)O)cn(C4CC4)c3c2F)C1 (stereo not given) ... FALSE
CC1(N)CCN(c2c(F)cc3c(=O)c(C(=O)O)cn(C4CC4)c3c2F)C1 (stereo not given) ... FALSE
CC1(CN)CCN(c2c(F)cc3c(=O)c(C(=O)O)cn(C4CC4)c3c2F)C1 (stereo not given) ... TRUE
NC1CN(c2c(F)cc3c(=O)c(C(=O)O)cn(C4CC4)c3c2F)CC1c1ccccc1 (stereo not given) ... FALSE

Enquiry: Please state whether MIC is below 0.05 µg/mL for NCC1CCN(c2c(F)cc3c(=O)c(C(=O)O)cn(C4CC4)c3c2F)C1 (stereo not given)
Return: TRUE

----------
Test system: Escherichia coli
assay-procedure: Antibacterial activity was determined against Gram-negative Escherichia coli H560 bacteria
Assay type: functional
attribute-measured: MIC
Give the figure together with its unit, number first.

Past entries and their recorded results:
NCC1CCN(c2c(F)cc3c(=O)c(C(=O)O)cn(C4CC4)c3c2F)C1 (stereo not given) ... 0.006 µg/mL
CN(C)CC1(c2ccccc2)CCN(c2c(F)cc3c(=O)c(C(=O)O)cn(C4CC4)c3c2F)C1 (stereo not given) ... 0.013 µg/mL

# MIC of NCC1(c2ccccc2)CCN(c2c(F)cc3c(=O)c(C(=O)O)cn(C4CC4)c3c2F)C1 (stereo not given) = 0.013 µg/mL

Lab book: MIC of NC1CN(c2c(F)cc3c(=O)c(C(=O)O)cn(C4CC4)c3c2F)CC1c1ccccc1 (stereo not given) noted as 0.025 µg/mL

CCNCC1(c2ccccc2)CCN(c2c(F)cc3c(=O)c(C(=O)O)cn(C4CC4)c3c2F)C1 (stereo not given) yielded MIC of 0.1 µg/mL

The value of MIC measured for the compound CC1(CN)CCN(c2c(F)cc3c(=O)c(C(=O)O)cn(C4CC4)c3c2F)C1 (stereo not given) turned out to be 0.013 µg/mL
